System: NCI-H226 lung
Test: NCI tumour cell line growth inhibition, 48 h
EXPERIMENTAL_READOUT: TGI

The following compounds have reported results that may help.
O=CN/N=C/c1ccc(Cl)c([N+](=O)[O-])c1	> 100 µM
CC1(C)C2CCC13C(=O)C1OC3(C2)C2C(=O)N(c3ccccc3)C(=O)C12 (stereo not given)	> 100 µM
C/C(=N/OC(=O)c1cccc2c(=O)c3ccccc3[nH]c12)[C@H]1CC[C@H]2[C@@H]3CCC4=C/C(=N/OC(=O)c5cccc6c(=O)c7ccccc7[nH]c56)CC[C@]4(C)[C@H]3CC[C@]12C	52.8 µM

// query Consider the compound shown here: COC(=O)C(Cc1ccc2c(c1)CCCC2)Cc1cc2c(cc1C(O)OC)CCC2 (stereo not given) What is its recorded TGI?
// result > 100 µM

// query Consider the compound shown here: `C=CCc1cccc2cc(C(N)=O)c(=N)oc12` What is its recorded TGI?
// result > 100 µM

// query Consider the compound shown here: `CN(C(=O)CCC(=O)O)c1ccccc1C(=O)O` What is its recorded TGI?
// result > 100 µM

// query Consider the compound shown here: `c1ccc2c(CC3NCCN3)cccc2c1` What is its recorded TGI?
// result > 100 µM

// query Consider the compound shown here: `CN(/N=C(\C(=O)O)c1ccccc1)C1=NCCN1` What is its recorded TGI?
// result > 100 µM

// query Consider the compound shown here: `Cc1nc2c(o1)C(=O)c1ccccc1C2=Nc1ccccc1` What is its recorded TGI?
// result 31.9 µM

// query Consider the compound shown here: CC(=O)OCC1(C)C(OC(C)=O)CCC2(C)C(CC(OC(C)=O)C3=CCOC3=O)C(O)(CO)CCC12 (stereo not given) What is its recorded TGI?
// result > 100 µM
